Overview of recorded growth AUC for various compounds
Tested on: Bacteroides thetaiotaomicron
EXPERIMENTAL_PROTOCOL: growth AUC relative to DMSO control (median of replicates) (fraction); higher = more growth (less inhibition), active = hit call of the paper
CONDITION_SUMMARY: 20 µM; 24 h
Would you mind answering with just the numeric figure?

Below are worked cases with known answers.
1) O=C(O)c1cccc2nnsc12 ... 1.01
2) COC(=O)CSc1cc(N=c2sc(=O)n3n2CCCC3)c(F)cc1Cl ... 0.94
3) CC(C)N(C(=O)CS(=O)CC(=O)O)c1ccc(F)cc1 (stereo unspecified) ... 0.987
4) COc1cc(OC)c(Cl)cc1N ... 1.01
5) S=C([S-])NCCNC(=S)[S-].[Zn+2] ... 0.978

# query: growth AUC of entry "CCN(CC)c1nc(C)cc(=O)[nH]1"
0.996

Look up growth AUC: "COC(=O)c1c(Cl)nn(C)c1S(=O)(=O)NC(=O)Nc1nc(OC)cc(OC)n1"
0.991

What value of growth AUC has been reported for the following compound? "CC1(C)C(=O)Oc2ccc(OS(C)(=O)=O)cc21"
0.988

For "c1ccc2c(c1)-c1cccc3c1c-2cc1ccccc13" , what is its reported growth AUC?
1.02

Fill blank: measured growth AUC of the compound "COC(=O)c1ccc(CNS(C)(=O)=O)cc1S(=O)(=O)NC(=O)Nc1nc(OC)cc(OC)n1" is ____.
0.991

# get_value(readout='growth AUC', item= O=C(Nc1ccc(Cl)cc1C(O)c1ccccc1)c1ccncc1 (stereo unspecified) )
0.97

Data request, read-out growth AUC, for "c1ccc2[nH]c(-c3cscn3)nc2c1"
0.974

Give its growth AUC value. Item: "Clc1ccc(CSc2ccc(Cl)cc2)cc1"
1.03

I have this compound here, "COc1ccc(Oc2ccc(NC(=O)N(C)C)cc2)cc1" , and I need its recorded growth AUC.
0.982

Looking for the measured growth AUC of CC(C)(NC(=O)C(Br)C(C)(C)C)c1ccccc1 (stereo unspecified) , can you help?
0.971

Query: growth AUC; subject: "CCOc1nc(F)cc2nc(S(=O)(=O)Nc3c(Cl)cccc3C(=O)OC)nn12"
0.999

* * *

Test system: Clostridium difficile
EXPERIMENTAL_PROTOCOL: growth AUC relative to DMSO control (median of replicates) (fraction); higher = more growth (less inhibition), active = hit call of the paper
CONDITION_SUMMARY: 20 µM; 24 h
Quick rule: growth AUC of at least 1 means T, below that means F.

Here are 5 molecules together with their reported answers.
1) NC1=C(Cl)C(=O)c2ccccc2C1=O ... F
2) COc1ccc(Cl)c(Cl)c1Cl ... F
3) CC(C)N(C(=O)CS(=O)(=O)[O-])c1ccc(F)cc1.[Na+] ... T
4) CCSc1nc(NC(C)C)nc(NC(C)C)n1 ... T
5) COC(=O)C(C)Oc1cc(Cl)c(Cl)cc1Cl (stereo not given) ... T

Please check the record CC1COc2ccccc2N1C(=O)C(Cl)Cl (stereo not given) and state if its growth AUC is at or above 1.
F

Say whether CC1CN(C2CCCCCCCCCCC2)CC(C)O1 (mixture of isomers) shows growth AUC of 1 or more.
F

Record "COC(=O)c1c(Cl)ccc(Cl)c1OC" ; criterion: growth AUC no lower than 1. Met?
T

Check the entry "COc1nc(OC)nc(C(=O)c2cccc(F)c2N(C)S(=O)(=O)C(F)F)n1" : does growth AUC equal or exceed 1?
T

* * *

Tested on: Roseburia intestinalis
EXPERIMENTAL_PROTOCOL: growth AUC relative to DMSO control (median of replicates) (fraction); higher = more growth (less inhibition), active = hit call of the paper
CONDITION_SUMMARY: 20 µM; 24 h
MEASURED_PARAMETER: growth AUC
Give only the figure.

# count of solved cases: 3
1. c1ccc2cc3c(ccc4ccccc43)cc2c1 ... 1.01
2. CCOC(=O)/C(Cl)=C/c1cc(N2C(=O)C3=C(CCCC3)C2=O)ccc1Cl ... 0.981
3. COC(=O)Nc1ccc(Cl)c(Cl)c1 ... 1

Could you share which growth AUC value was measured for "CCNc1nc(Cl)nc(N(CC)CC)n1" ?
1.01

Tell me the measured growth AUC of "CC(C)c1cccc2c(=O)c3ccccc3sc12" , please.
1.02

So what does the record say about growth AUC for "O.O.O=[N+]([O-])c1ccc([O-])cc1.[Na+]" ?
0.999

Dear colleague, I am looking for the recorded growth AUC of the following compound: "CCc1cccc(CC)c1N(COC)C(=O)C(=O)O"
1

* * *

System: Bacteroides uniformis
EXPERIMENTAL_PROTOCOL: growth AUC relative to DMSO control (median of replicates) (fraction); higher = more growth (less inhibition), active = hit call of the paper
CONDITION_SUMMARY: 20 µM; 24 h
MEASURED_PARAMETER: growth AUC
Lab note: record just the number, no unit beside it.

Worked set:
1) Nc1ccc(S(=O)(=O)Nc2nccs2)cc1 ... 1.02
2) CCOCOc1ccc(C(=O)Nc2cccc(Cl)c2Cl)cc1 ... 0.912
3) CCOC(=O)C1CC(=O)C(=C(O)C2CC2)C(=O)C1 (stereo unspecified) ... 0.972
4) C[C@@]1(c2ccccc2)NC(=O)N(Nc2ccccc2)C1=O ... 1.01
5) CCOCN(C(=O)C(=O)O)c1c(C)cccc1CC ... 1.01

Which growth AUC value is on record for "C#CCN(C)c1c(C#N)cnn1-c1nn2c(c1Cl)CCCC2" ?
0.914

Returns the measured growth AUC for the input compound. Input: "O=[N+]([O-])c1ccc2c(c1)Cc1ccccc1-2"
1

Name the reported growth AUC value associated with the compound COC(=O)C(C)Oc1cc(Cl)c(Cl)cc1Cl (stereo unspecified)
0.978

What does the data say about its growth AUC? Entry: C#CC(C)N(C)C(=O)Nc1ccc(Cl)cc1 (stereo unspecified)
0.99

If you can, please state the reported growth AUC value of COC(=O)C(Cl)Cc1ccc(Cl)cc1 (stereo unspecified) .
0.921

* * *

The entries below are paired with their reported growth AUC.
System: Escherichia coli IAI1
EXPERIMENTAL_PROTOCOL: growth AUC relative to DMSO control (median of replicates) (fraction); higher = more growth (less inhibition), active = hit call of the paper
CONDITION_SUMMARY: 20 µM; 24 h

1. CNC(=O)Sc1ccc(OS(C)(=O)=O)cc1 ... 1.02 (inactive)

Consider the molecule COCC(=O)N(c1c(C)cccc1C(=O)O)C(C)C(=O)O (stereo not given) and give its measured growth AUC.
0.978 (inactive)

Quick check: growth AUC of "CC(C)CNC(=O)N1CCNC1=O" ?
1.02 (inactive)

Please look up its growth AUC: Cc1ccc(C(C)NC(=O)[C@@H](NC(=O)OC(C)C)C(C)C)cc1 (stereo not given in full)
0.992 (inactive)

// lookup growth AUC for "Nc1ccc(O)cc1"
1.01 (inactive)

Field request: growth AUC | item: "CC(C)OC(=O)N[C@H](C(=O)N[C@H](C)c1nc2ccc(F)cc2s1)C(C)C"
1 (inactive)

* * *

Tested on: Akkermansia muciniphila
EXPERIMENTAL_PROTOCOL: growth AUC relative to DMSO control (median of replicates) (fraction); higher = more growth (less inhibition), active = hit call of the paper
CONDITION_SUMMARY: 20 µM; 24 h
growth AUC values, listed per item
Keep the answer to the number alone.

1) CC(C)OC(=O)[C@@H](C)N(C(=O)c1ccccc1)c1ccc(F)c(Cl)c1 ... 0.996

Request the reported growth AUC associated with "C#CCOC(=O)[C@@H](C)Oc1ccc(Oc2ncc(Cl)cc2F)cc1"
0.914

Record request: growth AUC value, item "COC(=O)Nc1ccc(Cl)c(Cl)c1"
0.817

Sample "CCCCCCCC/C=C\CCCCCCCCCCCC(=O)O" — what was its growth AUC?
1.05

Item under review: "CCCCCCCCOC(=O)COc1cc(Cl)c(Cl)cc1Cl" . Reported growth AUC?
1.05

Need growth AUC, item CC(C)(C)C(=O)C(Oc1ccc(Cl)cc1)n1ccnc1 (stereo not given)
1.07

What value of growth AUC has been reported for the following compound? "Oc1cccc2ccccc12"
1

# get_value(readout='growth AUC', item= "COC(=O)c1ccc(I)cc1S(=O)(=O)[N-]C(=O)Nc1nc(C)nc(OC)n1.[Na+]" )
1.25

I'd like to know its growth AUC. The compound in question is "CNC(=O)Nc1nc2ccccc2s1"
0.957

Name the reported growth AUC value associated with the compound "C#CCN(C)c1c(C#N)cnn1-c1nn2c(c1Cl)CCCC2"
0.903

For the compound "Clc1ccc(Sc2cc(Cl)c(Cl)cc2Cl)cc1" , what growth AUC is on record?
1.05

Data request, read-out growth AUC, for "CC(=O)Oc1c(Cl)c(Cl)c(Cl)c(Cl)c1Cl"
0.861

Requested field: growth AUC. Item: "O=C(O)[C@@H](S)[C@@H](S)C(=O)O"
1.14

Look up growth AUC: "c1ccc(Nc2ccccc2)cc1"
0.883

Reported growth AUC, compound CC(C)N(C(=O)CS(=O)CC(=O)O)c1ccc(F)cc1 (stereo not given) : ____
0.994

# query: growth AUC of entry "CC(C)c1nn(C(=O)NC(C)(C)C)c(=O)n1N"
0.95

Need growth AUC of "COC(=O)c1c(Cl)nn(C)c1S(=O)(=O)NC(=O)Nc1nc(OC)cc(OC)n1" , thanks.
0.984
